Please provide measured growth inhibition for the entries that follow.
- procedure_summary: NCI Yeast Anticancer Drug Screen. Data for the cln2 rad14 strain (AID 165);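 note: 0% = growth equal to vehicle treated cultures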
- test_context: S. cerevisiae cln2 rad14 strain, at 50.0 µM, active compounds read high
About 79,000 compounds went through this panel and 15% of them were active in at least one assay; those are over-represented in the sample as a whole.
Give bare numbers, in %.

Solved entries:
Cc1cc(Cl)c(C(C)C)cc1O
45
CCCCCCCCCCCCCC(N)c1ccc(C)cc1 (configuration not stated)
97.7
Cc1ccc2[nH]c3cc4ccncc4cc3c2c1
96.7

Hi, could you look up growth inhibition for each item in my list?
1. CN(C)c1cc(N(C)C)c2cc(-c3ccccc3)sc2n1
2. O=C(CC[P+](c1ccccc1)(c1ccccc1)c1ccccc1)c1ccccc1
3. O=c1oc2ccccc2c(O)c1/C=N/C(=S)NCCc1ccccc1
4. CCC(=S)N(C)O

## Output
1: 7.65; 2: 95.6; 3: -27.8; 4: 45.1

###

- procedure_summary: NCI Yeast Anticancer Drug Screen. Data for the rad50 strain (AID 155);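 note: 0% = growth of vehicle-only cultures of the same strain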
- test_context: S. cerevisiae rad50 strain growth inhibition; at 50.0 µM (retest, dose inferred, filed as 5.0); active compounds read high
This is part of a sample that, as a whole, favours compounds with a hit. Of some 79,000 tested, about 15% had one in any assay.
Please provide measured growth inhibition for the entries that follow.
One number for each entry, in %.

Hi, could you look up growth inhibition for each item in my list?
1. Nc1ccc(Oc2ccc(-c3ccccc3)cc2)c(Cl)c1
2. CC(=O)Oc1ccc(C)cc1C(C)(C)C
3. COc1ccc(C2Cc3cc(OC)ccc3C2=O)cc1 (stereo not drawn)
4. OC(CBr)C[n+]1cccc2cc(Cl)ccc21 (stereo not drawn)
5. NC(N)=Nc1ccc(N=C(N)N)cc1
6. Cc1ccc(S(=O)(=O)c2cc(O)c(O)c3ccc(Br)cc23)cc1
7. N#CC1=C(N)OC(c2ccccc2)=C(C#N)C1c1ccccc1[N+](=O)[O-] (stereo not drawn)
8. Cc1cc(Cl)cc2c1OCN(C)C2

## Output
97
0
94
5
2
97
5
93

###

- procedure_summary: NCI Yeast Anticancer Drug Screen. Data for the mec2-1 strain (AID 157)
- test_context: S. cerevisiae mec2-1 strain, at 5.0 µM (retest, dose inferred, filed as 0.5), active compounds read high
Compounds without any hit were thinned out: in the full panel of roughly 79,000, 15% have a hit.
measured_attribute: growth inhibition (%)
Answers are plain numbers, in %.

Solved entries:
Cc1c2cnccc2c(C)c2c1sc1ccccc12
80
S=C(N/N=C/c1ccco1)NC12CC3CC(CC(C3)C1)C2
24
CC([NH-])C(=O)O.[Cu+2].[NH-]C(Cc1cnc[nH]1)C(=O)O (stereo unspecified)
-4
O=C1/C(=C/c2ccccc2[N+](=O)[O-])COc2ccccc21
28
COc1ccccc1C1c2cc3c(cc2OC(C)(O)C1C)OCO3 (stereo unspecified)
-4
CCCNC(=O)C(=O)NNc1ccccc1
6
CN1CCCC1c1cccc(Br)c1 (stereo unspecified)
-51
Oc1c(Cl)cc(C(c2cc(Cl)c(O)c(Cl)c2)C(Cl)(Cl)Cl)cc1Cl
95
CC1(C)CC(=O)C2=C(C1)OC1=C(CC(C)(C)CC1=O)C2c1ccccc1[N+](=O)[O-] (stereo unspecified)
16
O=[N+]([O-])/C(C(Cl)=C(Cl)Cl)=C(/Sc1ccccc1)N1CCCCC1
3

We next turn to a different compound, shown below.
## Input // returns reported growth inhibition for input CC(C)c1c(P(=O)(c2ccccc2)c2ccccc2)n(C)c2ccccc12
## Output -34

###

- procedure_summary: NCI Yeast Anticancer Drug Screen. Data for the rad50 strain (AID 155);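 note: 0% = growth of vehicle-only cultures of the same strain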
- test_context: S. cerevisiae rad50 strain growth inhibition; at 50.0 µM (retest, dose inferred, filed as 5.0)
This is part of a sample that, as a whole, favours compounds with a hit. Of some 79,000 tested, about 15% had one in any assay. The source made the active and inactive calls. Rule as the data show it: active = growth inhibition above about 70%; inactive = the rest.
Could you please pick one outcome from this set? active, inactive

See these solved cases before continuing.
CC(=O)N=C1N(/C=C2\C(=O)Oc3ccccc3C2=O)C(=O)/C(=C/c2ccc(Cl)cc2Cl)N1C
active
O=C(CCBr)NC(=O)Oc1cccc2ccccc12
inactive
CN(C)c1cc(N(C)C)c2cc(-c3ccccc3)sc2n1
active
CN(C)C1=NC2=S(SC(Nc3ccccc3)=N2)S1 (stereo not drawn)
inactive
CCOC(=O)c1[nH]c(Br)c(-c2ccc(OC)c(OC)c2)c1Br
active

## Input Could you check what this test reported for CCCc1cc2c(cc1CN(C#N)Cc1cc3c(cc1CCC)OCO3)OCO2 ?
## Output inactive

## Input Could you check what this test reported for Nc1cc2c(nc3c4ccccc4c(N)cc3[n+]2-c2cccc3ccccc23)c2ccccc12 (tested in a mixture with another compound) ?
## Output active

## Input Could you check what this test reported for O=[N+]([O-])c1ccc(S)c(Cl)c1 ?
## Output active

## Input Could you check what this test reported for CCOc1ccc2c(ccc(/C=C\c3cc(C)c4cccnc4c3O)[n+]2C)c1 ?
## Output active

## Input Could you check what this test reported for CC(C)(C)CC(C)(C)c1ccc(O)c(Cl)c1 ?
## Output active

## Input Could you check what this test reported for N#Cc1ccc([N+](=O)[O-])cc1C#N ?
## Output active

## Input Could you check what this test reported for N=C(N)SC1c2ccccc2-c2ccc(N)cc21 (stereo not drawn) ?
## Output active

## Input Could you check what this test reported for COc1ccc2nc3c([N+](=O)[O-])ccc(NCCCN(C)C)c3c(N)c2c1 ?
## Output active

## Input Could you check what this test reported for CN(C)c1ccc(/C=C/C(=O)c2ccc([N+](=O)[O-])cc2)cc1 ?
## Output inactive

## Input Could you check what this test reported for CCCCCCN(CCCCCC)CCCC(O)c1cccc2ccccc12 (stereo not drawn) ?
## Output inactive

## Input Could you check what this test reported for CCN(CC)CCN(C)c1ccc(CO)c2c1C(=O)c1ccccc1S2=O (stereo not drawn) ?
## Output active

## Input Could you check what this test reported for C=CC(=O)NC(C)C ?
## Output inactive

###

Please provide measured growth inhibition for the entries that follow.
- procedure_summary: NCI Yeast Anticancer Drug Screen. Data for the bub3 strain (AID 167)
- test_context: S. cerevisiae bub3 mutant strain, at 50.0 µM, active compounds read high
- Description: Growth inhibition of yeast strains with defined genetic alterations is measured as a screen for potential anti-cancer activity. Selected strains with alterations in DNA damage repair or cell cycle control were exposed to compounds and growth inhibition was measured relative to vehicle treated controls. The strain used in this assay is bub3
The panel holds about 79,000 compounds, 15% with a hit somewhere; the sample as a whole holds those more often.
Numbers only, in %.

Solved entries:
Nc1ccc(S(=O)(=O)Nc2ccccc2)cc1
-2.1
N#CC(Cl)CS(=O)(=O)c1ccccc1 (stereo unspecified)
95.2
COc1cccc(NC(=S)NC2CC(C)CC(C)(C)C2)c1 (stereo unspecified)
89.2
O=C(OCCCN1CCCC1)C(c1ccccc1)C1CCCCC1 (stereo unspecified)
54.4
O=[N+]([O-])C1(CO)COC(CCc2ccccc2)OC1 (stereo unspecified)
65.5

## Input // returns reported growth inhibition for input CC(C)(CN1CCCCC1)C(/C=C/c1ccc(Cl)c(Cl)c1)=N\NC(=O)N/N=C(/C=C/c1ccc(Cl)c(Cl)c1)C(C)(C)CN1CCCCC1
## Output 91.8

###

- procedure_summary: NCI Yeast Anticancer Drug Screen. Data for the cln2 rad14 strain (AID 165);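 note: 0% = growth equal to vehicle treated cultures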
- test_context: S. cerevisiae cln2 rad14 strain, at 50.0 µM
This is part of a sample that, as a whole, favours compounds with a hit. Of some 79,000 tested, about 15% had one in any assay. Calls of active or inactive are those of the source. No stated cut-off is given here; in the data, active means growth inhibition above about 70%; inactive means the rest.
Could you please pick one outcome from this set? Yes (active), No (inactive)

See these solved cases before continuing.
COc1ccc(/C=C/c2ccnnc2)c(OC)c1OC
No
O=C(CBr)C1(Br)CCN(Cc2ccccc2)CC1
Yes
COc1ccc(C2=C(Cl)C(=O)N(c3ccc(OC)cc3)C(=O)C2(Cl)Cl)cc1
No
CC1(C)OC2C(COC(c3ccccc3)(c3ccccc3)c3ccccc3)OC(n3cnc4c(N)ncnc43)C2O1 (stereo not drawn)
Yes
O=[N+]([O-])C1(CO)COC(CCc2ccccc2)OC1 (stereo not drawn)
Yes

## Input Could you check what this test reported for C=CCOC(=O)C#CCCCC ?
## Output Yes

## Input Could you check what this test reported for OC1(c2ccccc2)c2ccccc2C(O)(c2ccccc2)c2cc3c(cc21)CCCC3 (stereo not drawn) ?
## Output Yes

## Input Could you check what this test reported for COc1ccc(NC(=O)CSC(N)=O)cc1 ?
## Output No

## Input Could you check what this test reported for COC12C(COC(N)=O)C3=C(C(=O)C(C)=C(N)C3=O)N1CC1C2N1C(=O)/C=C/c1ccccc1 (stereo not drawn) ?
## Output Yes

## Input Could you check what this test reported for ClCc1c(-c2ccccc2)oc(-c2ccccc2)c1CCl ?
## Output No

## Input Could you check what this test reported for O=c1c2ccccc2ncn1Cc1ccccc1[N+](=O)[O-] ?
## Output Yes

## Input Could you check what this test reported for O=C(CC(=O)c1ccncc1)c1ccccc1 ?
## Output Yes

## Input Could you check what this test reported for COC(=O)/C(Br)=C(\Br)c1ccccc1 ?
## Output No
